# protocol: log P by HPLC on reversed-phase columns (EEC Directive 79/831 Annex V.A8)
# Assay type: physicochemical
# testConditions: reversed-phase C18 HPLC column, pH 2.7, HPLC reversed-phase C18, acidic range pH 2.7 (HCOOH); only or first value of the cell; read-out: log P
measureName: chromatographic logP

INSERT INTO measurements (compound, numericvalue) VALUES
  ('Cc1cc(C#N)cc(C(=O)NCc2ccc(OC(F)F)cc2)c1NC(=O)c1cc(Cn2nnc(C(F)F)n2)nn1-c1ncccc1Cl [Example 165]', 3.04),
  ('Cc1cc(F)cc(C(=O)NCc2ccc(OC(F)(F)F)cc2)c1NC(=O)c1cc(Cn2nnc(C(F)(F)F)n2)nn1-c1ncccc1Cl [Example 155]', 3.92),
  ('Cc1cc(C#N)cc(C(=O)NCc2cccc(OC(F)F)c2)c1NC(=O)c1cc(Cn2nnc(C(F)(F)F)n2)nn1-c1c(Cl)cccc1Cl [Example 215]', 3.78),
  ('Cc1cc(C#N)cc(C(=O)NCc2ccc(OC(F)F)cc2)c1NC(=O)c1cc(Cn2nnc(C(F)(F)F)n2)nn1-c1ncccc1Cl [Example 168]', 3.49),
  ('O=C(NCc1cccc(OC(F)(F)F)c1)c1cc(Cl)cc(F)c1NC(=O)c1cc(Cn2nnc(C(F)(F)F)n2)nn1-c1ncccc1Cl [Example 210]', 4.22),
  ('Cc1cc(Cl)cc(C(=O)NCc2cccc(C(F)(F)F)c2)c1NC(=O)c1cc(Cn2nnc(C(F)(F)F)n2)nn1-c1ncccc1Cl [Example 95]', 4.23),
  ('Cc1cc(C#N)cc(C(=O)NC2CSC2)c1NC(=O)c1cc(Cn2nnc(C(F)(F)F)n2)nn1-c1ccccc1Cl [Example 25]', 3.46),
  ('O=C(NCc1ccc(OC(F)(F)F)cc1)c1cc(Cl)cc(F)c1NC(=O)c1cc(Cn2nnc(C(F)(F)F)n2)nn1-c1ncccc1Cl [Example 211]', 4.21),
  ('Cc1cc(I)cc(C(=O)NCc2ccccc2OC(F)(F)F)c1NC(=O)c1cc(Cn2nnc(C(F)(F)C(F)(F)F)n2)nn1-c1ncccc1Cl [Example 146]', 4.84),
  ('Cc1ccc(Cl)c(C(=O)NCc2ccc(OC(F)(F)F)cc2)c1NC(=O)c1cc(Cn2nnc(C(F)(F)F)n2)nn1-c1ncccc1Cl [Example 201]', 3.93),
  ('Cc1cc(Cl)cc(C(=O)N[C@@H](C)c2ccc([N+](=O)[O-])cc2)c1NC(=O)c1cc(Cn2nnc(C(F)(F)F)n2)nn1-c1ncccc1Cl [Example 129]', 3.86);

---

# protocol: log P by HPLC on reversed-phase columns (EEC Directive 79/831 Annex V.A8)
# Assay type: physicochemical
# testConditions: reversed-phase C18 HPLC column, pH 2.7, HPLC reversed-phase C18, acidic range pH 2.7 (HCOOH); only or first value of the cell; read-out: log P
measureName: chromatographic logP

INSERT INTO measurements (molecule, measurename, numericvalue) VALUES
  ('Cc1cc(C#N)cc(C(=O)NCc2ccccc2OC(F)F)c1NC(=O)c1cc(Cn2nnc(C(F)(F)F)n2)nn1-c1c(Cl)cccc1Cl [Example 189]', 'chromatographic logP', 3.75),
  ('Cc1cc(C#N)cc(C(=O)NC2CCSCC2)c1NC(=O)c1cc(Cn2nnc(C(F)(F)F)n2)nn1-c1ccccc1Cl [Example 58]', 'chromatographic logP', 3.65),
  ('Cc1cc(Cl)cc(C(=O)NCc2ccccc2OC(F)(F)F)c1NC(=O)c1cc(Cn2nnc(C(F)F)n2)nn1-c1ncccc1Cl [Example 150]', 'chromatographic logP', 3.81),
  ('O=C(NCc1cccc(Cl)c1)c1cc(Cl)cc(F)c1NC(=O)c1cc(Cn2nnc(C(F)(F)F)n2)nn1-c1ncccc1Cl [Example 207]', 'chromatographic logP', 3.89),
  ('O=C(NCc1ccccc1OC(F)(F)F)c1cc2ccccc2c(Cl)c1NC(=O)c1cc(Cn2nnc(C(F)(F)F)n2)nn1-c1ncccc1Cl [Example 221]', 'chromatographic logP', 4.36),
  ('Cc1cc(C#N)cc(C(=O)NCc2ccc(S(F)(F)(F)(F)F)cc2)c1NC(=O)c1cc(Cn2nnc(C(F)(F)F)n2)nn1-c1ncccc1Cl [Example 64]', 'chromatographic logP', 4.01);

---

# protocol: log P by HPLC on reversed-phase columns (EEC Directive 79/831 Annex V.A8)
# Format: physicochemical
# testConditions: reversed-phase C18 HPLC column, pH 2.7, HPLC reversed-phase C18, acidic range pH 2.7 (HCOOH); only or first value of the cell; read-out: log P
measureName: chromatographic logP

INSERT INTO measurements (compound, measurename, numericvalue) VALUES
  ('Cc1cc(Cl)cc(C(=O)NC(C)c2ccc(C(F)(F)F)cn2)c1NC(=O)c1cc(Cn2nnc(C(F)(F)F)n2)nn1-c1ncccc1Cl (stereo not shown) [Example 234]', 'chromatographic logP', 4.04),
  ('Cc1cc(I)cc(C(=O)NCc2ccccc2)c1NC(=O)c1cc(Cn2nc(C(F)(F)F)c(C(F)(F)F)n2)nn1-c1ncccc1Cl [Example 135]', 'chromatographic logP', 4.75),
  ('Cc1cc(I)cc(C(=O)NCc2cccc(OC(F)(F)F)c2)c1NC(=O)c1cc(Cn2nnc(C(F)(F)F)n2)nn1-c1ncccc1Cl [Example 156]', 'chromatographic logP', 4.47),
  ('Cc1cc(C#N)cc(C(=O)NC2CCS(=O)(=O)C2)c1NC(=O)c1cc(Cn2nnc(C(F)(F)F)n2)nn1-c1ccccc1Cl (stereo not shown) [Example 36]', 'chromatographic logP', 2.82),
  ('O=C(NCc1ccccc1Cl)c1cc2ccccc2c(Cl)c1NC(=O)c1cc(Cn2nnc(C(F)(F)F)n2)nn1-c1ncccc1Cl [Example 218]', 'chromatographic logP', 4.1),
  ('Cc1cc(Cl)cc(C(=O)NC(C)c2ccccc2C(F)(F)F)c1NC(=O)c1cc(Cn2nnc(C(F)(F)F)n2)nn1-c1ncccc1Cl (stereo not shown) [Example 123]', 'chromatographic logP', 4.35),
  ('Cc1cc(Cl)cc(C(=O)NCc2ccccc2)c1NC(=O)c1cc(Cn2nc(C(F)(F)F)c(C(F)(F)F)n2)nn1-c1ncccc1Cl [Example 134]', 'chromatographic logP', 4.52),
  ('Cc1cc(Cl)cc(C(=O)NC(C)c2ccc(Cl)c(Cl)c2)c1NC(=O)c1cc(Cn2nnc(C(F)(F)F)n2)nn1-c1ncccc1Cl (stereo not shown) [Example 142]', 'chromatographic logP', 4.58),
  ('Cc1cc(C#N)cc(C(=O)NCc2ccc3c(c2)OCO3)c1NC(=O)c1cc(Cn2nnc(C(F)(F)F)n2)nn1-c1ccccc1Cl [Example 182]', 'chromatographic logP', 3.64),
  ('Cc1cc(Cl)cc(C(=O)NCc2ccc(OC(F)F)cc2)c1NC(=O)c1cc(Cn2nnc(C(F)(F)F)n2)nn1-c1ncccc1Cl [Example 152]', 'chromatographic logP', 3.87),
  ('Cc1cc(C#N)cc(C(=O)NC2CCS(=O)(=O)C2)c1NC(=O)c1cc(Cn2nnc(C(F)(F)C(F)(F)F)n2)nn1-c1ncccc1Cl (stereo not shown) [Example 38]', 'chromatographic logP', 2.82),
  ('Cc1cc(C#N)cc(C(=O)NC2COC2)c1NC(=O)c1cc(Cn2nnc(C(F)(F)F)n2)nn1-c1ccccc1Cl [Example 26]', 'chromatographic logP', 2.85),
  ('Cc1cc(Cl)cc(C(=O)NCc2ccccc2OC(F)F)c1NC(=O)c1cc(Cn2nnc(C(F)(F)F)n2)nn1-c1ncccc1Cl [Example 158]', 'chromatographic logP', 4);

---

We begin with a simple list: items and their reported chromatographic logP.
# protocol: log P by HPLC on reversed-phase columns (EEC Directive 79/831 Annex V.A8)
# Type: physicochemical
# testConditions: pH 2.7, log P
Kindly provide the number alone.

Looking up Cc1cc(C#N)cc(C(=O)NC2COC2)c1NC(=O)c1cc(Cn2nnc(C(F)(F)F)n2)nn1-c1ncccc1Cl , I found its chromatographic logP recorded as 2.49

Looking up Cc1cc(Cl)cc(C(=O)NC(C)C2CCCO2)c1NC(=O)c1cc(Cn2nnc(C(F)(F)F)n2)nn1-c1ncccc1Cl (stereo not shown) , I found its chromatographic logP recorded as 3.45

Looking up O=C(NCc1ccc(Cl)cc1)c1cc(Br)cc(Cl)c1NC(=O)c1cc(Cn2nnc(C(F)(F)F)n2)nn1-c1ncccc1Cl , I found its chromatographic logP recorded as 4.08

Looking up CCc1cccc(CNC(=O)c2cc(Cl)cc(C)c2NC(=O)c2cc(Cn3nnc(C(F)(F)F)n3)nn2-c2ncccc2Cl)n1 , I found its chromatographic logP recorded as 2.22

Looking up Cc1cc(Cl)cc(C(=O)NCc2cccc(Cl)c2Cl)c1NC(=O)c1cc(Cn2nnc(C(F)(F)F)n2)nn1-c1ncccc1Cl , I found its chromatographic logP recorded as 4.37

Looking up Cc1cc(Cl)cc(C(=O)NC(C)c2ccccc2)c1NC(=O)c1cc(Cn2nnc(C(F)(F)F)n2)nn1-c1ncccc1Cl (stereo not shown) , I found its chromatographic logP recorded as 3.92

Looking up Cc1cc(Cl)cc(C(=O)NN2CCN(C)C2=O)c1NC(=O)c1cc(Cn2nnc(C(F)(F)F)n2)nn1-c1ncccc1Cl , I found its chromatographic logP recorded as 2.64
